Target: HLA-G expressed on the cell surface (human, UniProt P17693 25-338)
Test: cell-based or functional assay
reported_metric: EC50 (nM), ADCC reporter assay on SKOV-3/HLA-G cells, afucosylated antibody
All answers are understood in nM, so give the number only.

Qu. Give me measured EC50 (nM), ADCC reporter assay on SKOV-3/HLA-G cells, afucosylated antibody, please, for this binder: Afucosylated 2F1CDRH3#26 (antibody, human IgG1, kappa, V domains shown, afucosylated glycan (antibody produced with 400 µM 2-deoxy-2-fluoro-L-fucose in the medium)) VH: EVQLVESGGGLVQPGGSLRLSCAASGFTFSSYAMSWVRQAPGKGLEWVSRISGSGSYTYYADSVKGRFTISRDNSKNTLYLQMNSLRAEDTAVYYCAKEGASSYRGWMDVWGQGTLVTVSS VL: DIQMTQSPSSLSASVGDRVTITCRASQSISNYLNWYQQKPGKAPKLLIYATSRLQSGVPSRFSGSGSGTDFTLTISSLQPEDFATYYCQQSHSTPWTFGQGTKVEIKR
Ans. 0.02

Qu. Give me measured EC50 (nM), ADCC reporter assay on SKOV-3/HLA-G cells, afucosylated antibody, please, for this binder: Afucosylated 2F1CDRH3#17 (antibody, human IgG1, kappa, V domains shown, afucosylated glycan (antibody produced with 400 µM 2-deoxy-2-fluoro-L-fucose in the medium)) VH: EVQLVESGGGLVQPGGSLRLSCAASGFTFSDYAMSWVRQAPGKGLEWVSRISGTGSYKYYADSVKGRFTISRDNSKNTLYLQMNSLRAEDTAVYYCAKEGTSTYRGWMDVWGQGTLVTVSS VL: DIQMTQSPSSLSASVGDRVTITCRASQSISNYLNWYQQKPGKAPKLLIYATSRLQSGVPSRFSGSGSGTDFTLTISSLQPEDFATYYCQQSYTTPWTFGQGTKVEIKR
Ans. 0.01

Qu. Give me measured EC50 (nM), ADCC reporter assay on SKOV-3/HLA-G cells, afucosylated antibody, please, for this binder: Afucosylated positive control antibody (antibody, human IgG1, kappa, V domains shown, afucosylated glycan) VH: QLQLQESGPGLVKPSETLSLTCTVSGGSISSSSTYWSWIRQPPGKGLEWIGGIAYSGSTYYNPSLKSRVTISVDTSKNQFSLKLSSVTAADTAVYYCARGVRRAVPEDYWGQGTLVTVSS VL: EIVLTQSPGTLSLSPGERATLSCQASQAVSSNYLAWYQQKPGQAPRLLIYGASSRATGIPDRFSGSGSGTDFTLTISRLEPEDFAVYYCQQVVHSPYTFGGGTKVEIKR
Ans. 0.13
